Procedure Text: yeast AGP1-GFP level changes, GLN3 branch – cell-based, multiplex flow cytometry, S. cerevisiae, primary screen (AID 1887);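 note: AGP1-GFP fusion strain of S. cerevisiae within a five-strain barcoded multiplex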
Run Conditions: 3 h, at 10 µM
Inconclusive results are not listed. Active and inactive are the calls of the source.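 Rule for the calls: active = GFP signal above the screen-wide mean plus 3 SD, that is over about 124.5% of the solvent control; inconclusive = no reading because the compound's own fluorescence disturbed strain identification; inactive = the rest.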
The categories you may choose from are active, inactive

Would you please look over these solved cases?
| Compound | Cat |
| --- | --- |
| O=C(COc1ccc2c(-c3ccccc3)cc(=O)oc2c1)NCc1cccs1 | inactive |
| Cc1c(NC(=O)c2cccs2)cccc1[N+](=O)[O-] | inactive |
| COc1ccc([C@H]2[C@H](C(=O)OC(C)(C)C)N3N=Cc4ccccc4C3C23C(=O)c2ccccc2C3=O)cc1OC (some centres not stated) | inactive |
| COc1ccc2c(c1OC)C(C1c3c(cc4c(c3OC)OCO4)CCN1C)OC2=O (configuration not stated) | inactive |
| Cc1ccccc1N1C(N)=NC(N)=NC1(C)C | inactive |

Query block: Each compound tested received a call. Report the one for O=C(O)c1ccccc1OCCOc1ccccc1 .
Result block: inactive

Query block: Can you handle Cc1ccc2c(c1)C1(C(=O)N2)N2CCCC2C(C(=O)c2ccc3ccccc3c2)C12C(=O)Nc1ccccc12 (configuration not stated) next?
Result block: inactive
